Ref: patent US20230416248A1

# System under test: BRM (Homo sapiens)
# Construct: made in house; host or cells: High Five insect cells
# Assay text: ATPase catalytic activity of BRM, ADP-Glo in vitro biochemical assay
# Test parameters: ADP-Glo ATPase assay, 30 nM BRM, 400 μM ATP
pIC50: −log10 of the molar value.
Assay endpoint: pIC50

COc1ncc(F)c2c1CCCN2c1ccc2cnc(CNC(=O)c3ccc4c(c3)S(=O)(=O)CCOC4)cc2n1 [Compound 825]	7.50

I = C[C@@H]1CN(c2cccc(-c3ccc4cnc(CNC(=O)c5ccc6c(c5)S(=O)(=O)CCCC6)cc4n3)n2)C[C@H](C)O1 [Compound 91]
II = C[C@@H]1CC(c2cccc(-c3ccc4cnc(CNC(=O)c5ccc6c(c5)S(=O)(=O)CCOC6)cc4n3)n2)=C[C@H](C)O1 [Compound 46]
## Task Smaller pIC50 value? Options are I and II Pick one; state its label.
## Result II
(II: 8.03, I: 8.32)

###

# System under test: BRM (Homo sapiens, UniProt P51531)
# Construct: made in house; host or cells: High Five insect cells
# Sequence (P51531 whole entry): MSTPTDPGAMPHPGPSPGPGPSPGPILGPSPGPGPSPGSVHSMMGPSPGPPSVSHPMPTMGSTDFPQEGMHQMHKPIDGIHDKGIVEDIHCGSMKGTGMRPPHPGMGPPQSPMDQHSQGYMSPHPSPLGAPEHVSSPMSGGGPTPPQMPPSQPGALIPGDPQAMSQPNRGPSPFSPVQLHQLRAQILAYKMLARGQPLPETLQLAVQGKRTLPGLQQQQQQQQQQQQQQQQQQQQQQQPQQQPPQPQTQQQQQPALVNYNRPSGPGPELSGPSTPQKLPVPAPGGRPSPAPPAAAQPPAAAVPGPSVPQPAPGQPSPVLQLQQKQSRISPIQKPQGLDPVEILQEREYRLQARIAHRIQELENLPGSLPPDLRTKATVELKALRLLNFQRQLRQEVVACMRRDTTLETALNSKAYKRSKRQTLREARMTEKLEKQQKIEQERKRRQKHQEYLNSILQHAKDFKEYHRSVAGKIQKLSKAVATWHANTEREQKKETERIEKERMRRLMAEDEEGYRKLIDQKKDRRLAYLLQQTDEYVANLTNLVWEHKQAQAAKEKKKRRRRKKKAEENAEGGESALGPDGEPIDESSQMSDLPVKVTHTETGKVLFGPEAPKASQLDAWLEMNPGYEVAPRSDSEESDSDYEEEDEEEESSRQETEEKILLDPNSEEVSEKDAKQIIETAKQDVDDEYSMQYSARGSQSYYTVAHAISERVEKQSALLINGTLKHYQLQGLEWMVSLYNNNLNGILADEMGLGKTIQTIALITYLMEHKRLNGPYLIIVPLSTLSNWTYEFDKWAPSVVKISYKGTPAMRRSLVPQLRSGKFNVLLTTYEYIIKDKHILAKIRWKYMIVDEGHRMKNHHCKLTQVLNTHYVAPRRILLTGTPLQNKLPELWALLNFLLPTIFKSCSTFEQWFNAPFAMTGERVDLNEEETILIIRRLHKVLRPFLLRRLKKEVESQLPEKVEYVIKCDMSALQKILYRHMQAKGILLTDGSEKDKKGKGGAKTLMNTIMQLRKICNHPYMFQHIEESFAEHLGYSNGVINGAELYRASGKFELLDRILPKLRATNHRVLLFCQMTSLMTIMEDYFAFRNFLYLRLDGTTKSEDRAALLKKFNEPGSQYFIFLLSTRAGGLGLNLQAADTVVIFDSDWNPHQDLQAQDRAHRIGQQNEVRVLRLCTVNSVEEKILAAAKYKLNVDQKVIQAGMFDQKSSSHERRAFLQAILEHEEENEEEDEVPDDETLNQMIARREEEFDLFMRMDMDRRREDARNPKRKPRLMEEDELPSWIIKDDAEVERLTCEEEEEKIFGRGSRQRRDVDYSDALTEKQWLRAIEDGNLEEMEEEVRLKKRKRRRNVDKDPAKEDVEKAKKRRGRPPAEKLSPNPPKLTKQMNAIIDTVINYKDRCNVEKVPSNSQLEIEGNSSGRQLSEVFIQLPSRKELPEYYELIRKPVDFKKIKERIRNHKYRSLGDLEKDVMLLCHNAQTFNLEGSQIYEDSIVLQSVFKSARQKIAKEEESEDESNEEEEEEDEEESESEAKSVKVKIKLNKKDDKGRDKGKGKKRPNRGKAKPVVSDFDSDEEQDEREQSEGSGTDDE
# Assay text: ATPase catalytic activity of BRM, ADP-Glo in vitro biochemical assay
# Test parameters: selectivity ratio BRG1 IC50 / BRM IC50
Assay endpoint: Ratio* (BRG1 IC50 (μM) divided by BRM IC50 (μM))

# annotated cases, reported Ratio* (BRG1 IC50 (μM) divided by BRM IC50 (μM)) shown
O=C(NCc1cc2nc(-c3cccc(OC(F)(F)F)n3)ccc2cn1)c1ccc2c(c1)S(=O)(=O)CCOC2	20.63
C[C@@H]1CN(c2cncc(-c3ccc4cnc(CNC(=O)c5ccc(Cl)c(S(C)(=O)=O)c5)cc4n3)n2)C[C@H](C)O1	9.47
CS(=O)(=O)c1cc(C(=O)NCc2cc3nc(-c4cncc(C5CC5)n4)ccc3cn2)ccc1Cl	17.37
COCCOc1cccc(-c2ccc3cnc(CNC(=O)c4ccc5c(c4)S(=O)(=O)CCOC5)cc3n2)c1	9.48
CS(=O)(=O)c1cncc(C(=O)NCc2cc3nc(-c4cncc(C5CC5)n4)ccc3cn2)c1	4.98

1 = COc1nn([C@H]2C[C@H](F)C2)cc1-c1ccc2cnc(CNC(=O)c3ccc4c(c3)S(=O)(=O)CCOC4)cc2c1
2 = COCCN1CCOc2c(-c3ccc4cnc(CNC(=O)c5ccc6c(c5)S(=O)(=O)CCOC6)cc4n3)cccc21
## Task // compare measured Ratio* (BRG1 IC50 (μM) divided by BRM IC50 (μM)) between 1 and 2 ; output the lower one In your reply, give the label of the chosen option.
## Result 2
(2: 11.42, 1: 22.13)

###

# System under test: BRM (Homo sapiens)
# Construct: made in house; host or cells: High Five insect cells
# Assay text: ATPase catalytic activity of BRM, ADP-Glo in vitro biochemical assay
# Test parameters: ratio BRG1 IC50 / BRM IC50
Assay endpoint: Ratio*

// solved cases for Ratio* follow
Cc1c(C2CC2)cnc2c1OCCN2c1ccc2cnc(CNC(=O)c3ccc4c(c3)S(=O)(=O)CCOC4)cc2n1	8.62
[2H]C1([2H])OC([2H])([2H])[C@H](C)S(=O)(=O)c2cc(C(=O)NCc3cc4nc(N5CCOc6cc(C)cnc65)ccc4cn3)ccc21	14.12
O=C(NCc1cc2nc(N3CCN(CC(F)F)c4cccnc43)ccc2cn1)c1ccc2c(c1)S(=O)(=O)CCOC2	19.92

a = CN(c1cnc2c(c1)OCCN2c1ccc2cnc(CNC(=O)c3ccc4c(c3)S(=O)(=O)CCOC4)cc2n1)C1CC1
b = C[C@H]1C[C@H]1c1ccc2c(n1)N(c1ccc3cnc(CNC(=O)c4ccc5c(c4)S(=O)(=O)CCOC5)cc3n1)CCO2
## Task Returns: the label, a or b , whose recorded Ratio* is the lower number. Indicate your choice by writing its label.
## Result a
(a: 4.99, b: 33.09)

P = O=C(NCc1cc2nc(C34CC3CCc3cccnc34)ccc2cn1)c1ccc2c(c1)S(=O)(=O)CCOC2 (stereo not shown)
Q = COCc1cc(C)c2c(n1)N(c1ccc3cnc(CNC(=O)c4ccc5c(c4)S(=O)(=O)CCOC5)cc3n1)CCC2
## Task When the recorded Ratio* values are compared, which is smaller: that of P or that of Q ? # reply format: chosen label
## Result P
(P: 1.00, Q: 18.04)
